ASSAY PROCEDURE: chemical genetic growth profiling, strain panel (AID 1159580);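 note: tested at 20 µM; growth read once vehicle control cultures reached saturation at 30 °C; 1 = growth at the plate median or of vehicle wells; lower values mean less growth of the strain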
CONDITION DESCRIPTION: S. cerevisiae deletion strains, growth OD, locus YEL061C, strain CIN8, stronger effect = lower value
Out of some 5,500 compounds screened, about 2,000 (36%) were called active. Not shown: some 18% with an inconclusive outcome. The list shows a part of the results.
READOUT NAME: normalized growth

{"COMPOUND": "c1ccc2c(CC3=NCCN3)cccc2c1", "TEST RESULT": 1.01}
{"COMPOUND": "CC(=O)NCCc1c[nH]c2ccc(O)cc12", "TEST RESULT": 0.984}
{"COMPOUND": "Cn1c(=S)[nH]c2cc(C(F)(F)F)ccc21", "TEST RESULT": 0.888}
{"COMPOUND": "CC1OC(O[C@H]2/C=C/C=C/C=C/C=C/C=C/C=C/C=C/[C@H](C)[C@@H](O)[C@@H](C)[C@H](C)OC(=O)CC(O)CC(O)CCC(O)C(O)CC(O)C[C@]3(O)C[C@H](O)C(C(=O)O)C(C2)O3)C(O)[C@H](N)C1O (some centres undefined)", "TEST RESULT": 1.01}
{"COMPOUND": "NC(N)=NCCN1CCCCCCC1", "TEST RESULT": 1.01}
{"COMPOUND": "NCCCC(=O)O", "TEST RESULT": 1}
{"COMPOUND": "COc1cc(C)c2c(=O)cc(-c3ccccc3)oc2c1", "TEST RESULT": 0.985}
{"COMPOUND": "NC(N)=NC(N)=Nc1ccccc1C(F)(F)F", "TEST RESULT": 0.993}
{"COMPOUND": "CC12CCC3C(=CCc4cc(O)ccc43)C1CCC2=O (centres undefined)", "TEST RESULT": 0.967}
{"COMPOUND": "O=C(Nc1cc(C(F)(F)F)cc(C(F)(F)F)c1)C(c1ccccc1)C1CCCC1 (centres undefined)", "TEST RESULT": 0.969}
{"COMPOUND": "C[C@]12CCC3c4ccc(O)cc4CCC3C1CCC2=O (some centres undefined)", "TEST RESULT": 0.997}
{"COMPOUND": "Cc1cc(/C=C/c2ccc3cc(N(C)C)ccc3[n+]2C)c(C)n1-c1ccccc1", "TEST RESULT": 0.879}
{"COMPOUND": "N[C@@H](C(=O)O)[C@@H](O)[C@H](O)[C@H](O)CO", "TEST RESULT": 1.02}
{"COMPOUND": "O=C(Oc1ccc(Cl)cc1Cl)c1c(Cl)cccc1Cl", "TEST RESULT": 0.997}

----------
ASSAY PROCEDURE: chemical genetic growth profiling, strain panel (AID 1159580);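 note: tested at 20 µM; growth read once vehicle control cultures reached saturation at 30 °C; 1 = growth at the plate median or of vehicle wells; lower values mean less growth of the strain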
CONDITION DESCRIPTION: S. cerevisiae deletion strains, growth OD, locus YLR370C, strain arc18, stronger effect = lower value
The whole screen tested about 5,500 compounds, of which about 2,000 (36%) were called active. Roughly 18% stayed inconclusive and do not appear here. The list shows a part of the results. Where a SMILES comes first, the peptide text is derived from it.
Below is a list of entries, each paired with its recorded normalized growth value.
READOUT NAME: normalized growth

{"COMPOUND": "CC1(C)N([O-])[N+](=O)C1(C)Br (stereo unspecified)", "READOUT NAME": "normalized growth", "TEST RESULT": 0.982}
{"COMPOUND": "CC(=O)O[C@]1(C)CC[C@@]23CC1C(C)(C)[C@@H]2CC[C@H]3C", "READOUT NAME": "normalized growth", "TEST RESULT": 0.976}
{"COMPOUND": "Cc1cc(/C=C/c2ccc3cc(N(C)C)ccc3[n+]2C)c(C)n1-c1ccccc1", "READOUT NAME": "normalized growth", "TEST RESULT": 0.986}
{"COMPOUND": "Fc1ccc([C@@H]2CCNC[C@H]2COc2ccc3c(c2)OCO3)cc1", "READOUT NAME": "normalized growth", "TEST RESULT": 0.994}
{"COMPOUND": "COc1cc2c(cc1OC)C1(O)C(=O)c3ccc(O)c(C(=O)O)c3OC1CO2 (stereo unspecified)", "READOUT NAME": "normalized growth", "TEST RESULT": 0.988}
{"COMPOUND": "COc1ccc2c(c1)OCC(Cc1ccc(OC)c(O)c1)C2=O (stereo unspecified)", "READOUT NAME": "normalized growth", "TEST RESULT": 0.97}
{"COMPOUND": "COC(=O)/C(C)=C\\CC12OC(C)(C)C3CC(C=C4C(=O)c5c(OC)c6c(c(CC=C(C)C)c5OC431)OC(C)(CCC=C(C)C)C=C6)C2=O (stereo unspecified)", "READOUT NAME": "normalized growth", "TEST RESULT": 1.01}
{"COMPOUND": "CC(C)=CC1C(C(=O)OCc2cccc(Oc3ccccc3)c2)C1(C)C (stereo unspecified)", "READOUT NAME": "normalized growth", "TEST RESULT": 1.03}
{"COMPOUND": "O=C1CCCN1CC#CCN1CCCC1", "READOUT NAME": "normalized growth", "TEST RESULT": 1.02}
{"COMPOUND": "CC(=O)N[C@@H](CC(=O)O)C(=O)N[C@@H](CCC(=O)O)C(=O)O (Ac-Asp-Glu-OH)", "READOUT NAME": "normalized growth", "TEST RESULT": 1.02}
{"COMPOUND": "Clc1ccc(COC(Cn2ccnc2)c2ccc(Cl)cc2Cl)c(Cl)c1 (stereo unspecified)", "READOUT NAME": "normalized growth", "TEST RESULT": 0.064}
{"COMPOUND": "CC(=O)Oc1c2c(c(CC=C(C)C)c3c1C(=O)C1=C[C@@H]4CC5C(C)(C)OC(C/C=C(\\C)C(=O)O)(C4=O)[C@@]15O3)OC(C)(CCC=C(C)C)C=C2 (stereo partly specified)", "READOUT NAME": "normalized growth", "TEST RESULT": 0.946}
{"COMPOUND": "NCCCNCCSP(=O)(O)O", "READOUT NAME": "normalized growth", "TEST RESULT": 0.969}
{"COMPOUND": "CC12CCCCC1(Br)[N+](=O)N2[O-] (stereo unspecified)", "READOUT NAME": "normalized growth", "TEST RESULT": 0.966}
{"COMPOUND": "Oc1c(Cl)cc(Cl)c(Cl)c1Cc1c(O)c(Cl)cc(Cl)c1Cl", "READOUT NAME": "normalized growth", "TEST RESULT": 0.0635}
{"COMPOUND": "COc1ccc(-c2oc3cc(OC)c(OC)c(OC)c3c(=O)c2OC)cc1", "READOUT NAME": "normalized growth", "TEST RESULT": 0.969}
